Attribution: patent US20180228780A1

Test system: Wnt activity (Sp5-Luc reporter, SW480 colon carcinoma cells)
Assay: Screening assay for Wnt activity: Sp5-Luc reporter gene assay in SW480 cells
Assay type: cell-based
Details: Homo sapiens; SW480 Sp5-Luc reporter, overnight incubation
Endpoint: pEC50
On this scale, pEC50 is minus log10 of a concentration expressed in M (mol/L).

[[record]]
substance_smiles = "c1cc(-c2ccc3[nH]nc(-c4cc5c(-c6ccsc6)cncc5[nH]4)c3c2)ccn1"
endpoint = "pEC50"
quantitative_result = 5.88

[[record]]
substance_smiles = "Cn1cc(-c2ccc3[nH]nc(-c4cc5c(-c6cccnc6)cncc5[nH]4)c3c2)cn1"
endpoint = "pEC50"
quantitative_result = 6.60

[[record]]
substance_smiles = "O=C(Nc1cncc(-c2ccc3[nH]nc(-c4cc5c(-c6cccs6)cncc5[nH]4)c3c2)c1)C1CC1"
endpoint = "pEC50"
quantitative_result = 7.07

[[record]]
substance_smiles = "O=C(Nc1cncc(-c2ccc3[nH]nc(-c4cc5c(-c6cccnc6)cncc5[nH]4)c3c2)c1)C1CCCC1"
endpoint = "pEC50"
quantitative_result = 5.86

[[record]]
substance_smiles = "CCCC(=O)Nc1cncc(-c2ccc3[nH]nc(-c4cc5ccncc5[nH]4)c3c2)c1"
endpoint = "pEC50"
quantitative_result = 6.34


Consider now this further compound.
[in] What pEC50 value was documented for this compound, c1cc2cc(-c3n[nH]c4ccc(-c5cncc(CNCC6CCCC6)c5)cc34)[nH]c2cn1 ?
[out] 5.84

----------
Readings of pEC50 for the listed compounds
Test system: Wnt activity (Sp5-Luc reporter, SW480 colon carcinoma cells)
Experiment: Screening assay for Wnt activity: Sp5-Luc reporter gene assay in SW480 cells
Format: cell-based
Conditions: Homo sapiens; SW480 Sp5-Luc reporter, overnight incubation
On this scale, pEC50 is minus log10 of a concentration expressed in M (mol/L).

Consider the worked cases shown below.
[[record]]
substance_smiles = "CS(=O)(=O)NCc1cc(F)cc(-c2cncc3[nH]c(-c4n[nH]c5ccc(-c6cncnc6)cc45)cc23)c1"
measured_on = "Wnt activity (Sp5-Luc reporter, SW480 colon carcinoma cells)"
endpoint = "pEC50"
quantitative_result = 5.60

[[record]]
substance_smiles = "CN1CCN(c2cncc3[nH]c(-c4n[nH]c5ccc(-c6cccnc6)cc45)cc23)CC1"
measured_on = "Wnt activity (Sp5-Luc reporter, SW480 colon carcinoma cells)"
endpoint = "pEC50"
quantitative_result = 5.39

[[record]]
substance_smiles = "c1ncc(-c2ccc3[nH]nc(-c4cc5c(N6CCCCC6)cncc5[nH]4)c3c2)cc1CN1CCCC1"
measured_on = "Wnt activity (Sp5-Luc reporter, SW480 colon carcinoma cells)"
endpoint = "pEC50"
quantitative_result = 5.74

[[record]]
substance_smiles = "CN(C)Cc1cncc(-c2ccc3[nH]nc(-c4cc5c(-c6ccc(F)cc6)cncc5[nH]4)c3c2)c1"
measured_on = "Wnt activity (Sp5-Luc reporter, SW480 colon carcinoma cells)"
endpoint = "pEC50"
quantitative_result = 5.51

[[record]]
substance_smiles = "FC1(F)CCN(Cc2cncc(-c3ccc4[nH]nc(-c5cc6c(-c7cccnc7)cncc6[nH]5)c4c3)c2)C1"
measured_on = "Wnt activity (Sp5-Luc reporter, SW480 colon carcinoma cells)"
endpoint = "pEC50"
quantitative_result = 6.28


Consider now this further compound.
[in] What pEC50 value was documented for this compound, CN1CCN(c2cncc3[nH]c(-c4n[nH]c5ccc(-c6cncc(N)c6)cc45)cc23)CC1 ?
[out] 5.08
